# test_target: P2X3 (UniProt P56373)
# protocol: P2X3 FLIPR intracellular calcium assay
# measurement_parameters: agonist at EC75, species (human or rat) not given
pIC50: −log10 of the molar value.
Here the recorded pIC50 is given for each entry.
readout: pIC50

compound="Cc1ccc(-c2cnc3c(Nc4ccccc4)cc(C(=O)N[C@@H](C)c4nnc[nH]4)cn23)s1 [Example 7]" readout=pIC50 result="7.00 to 9.00"
compound="Cc1ccc(-c2cnc3c(N4CCC(C)CC4)cc(C(=O)NCc4ccn(C)c(=O)c4)cn23)s1 [Example 128]" readout=pIC50 result="7.00 to 9.00"
compound="Cc1ccc(-c2cnc3c(-n4nnnc4CC4CC4)cc(C(=O)N[C@@H](C)c4nnc[nH]4)cn23)s1 [Example 166]" readout=pIC50 result="7.00 to 9.00"
compound="CCc1ccnn1-c1cc(C(=O)NCc2ccc(C)nc2)cn2c(-c3ccc(C)s3)cnc12 [Example 6]" readout=pIC50 result="< 5.00"
compound="Cc1ccc(-c2cnc3c(-n4nnnc4C(F)F)cc(C(=O)N[C@@H](C)c4nnc[nH]4)cn23)s1 [Example 168]" readout=pIC50 result="7.00 to 9.00"
compound="Cc1ccc(-c2cnc3c(Nc4ncc(C)s4)cc(C(=O)N[C@@H](C)c4nnc[nH]4)cn23)s1 [Example 94]" readout=pIC50 result="7.00 to 9.00"
compound="CCc1cnnn1-c1cc(C(=O)N[C@@H](C)c2nnc[nH]2)cn2c(-c3ccc(C)o3)cnc12 [Example 62]" readout=pIC50 result="7.00 to 9.00"
compound="Cc1ccc(CNC(=O)c2cc(-n3nnnc3C(F)F)c3ncc(-c4ncc(C)s4)n3c2)cn1 [Example 173]" readout=pIC50 result="6.00 to 7.00"
compound="Cc1ccc(CNC(=O)c2cc(N3CCN(C(N)=O)CC3)c3ncc(-c4ccc(C)s4)n3c2)cn1 [Example 13]" readout=pIC50 result="< 5.00"
compound="C[C@H](NC(=O)c1cc(-n2nncc2C(F)F)c2ncc(-c3ccc(C(F)(F)F)s3)n2c1)c1nnc[nH]1 [Example 59]" readout=pIC50 result="6.00 to 7.00"
compound="Cc1ncc(CNC(=O)c2cc(-n3nncc3C(F)F)c3ncc(-c4ccc(C)s4)n3c2)cn1 [Example 31]" readout=pIC50 result="7.00 to 9.00"
compound="C[C@H](NC(=O)c1cc(-n2nnnc2C2CC2)c2ncc(-c3ccc(Cl)s3)n2c1)c1nnc[nH]1 [Example 175]" readout=pIC50 result="6.00 to 7.00"
compound="COc1ncc(CNC(=O)c2cc(-n3nncc3C(F)(F)F)c3ncc(-c4ncc(C)s4)n3c2)cn1 [Example 86]" readout=pIC50 result="6.00 to 7.00"
compound="C[C@H](NC(=O)c1cc(-n2nnnc2C(F)F)c2ncc(-c3ccc(Cl)s3)n2c1)c1nnc[nH]1 [Example 170]" readout=pIC50 result="7.00 to 9.00"
compound="CC[C@H](NC(=O)c1cc(N2CCC(F)(F)CC2)c2ncc(-c3ccc(C)s3)n2c1)c1nnc[nH]1 [Example 144]" readout=pIC50 result="6.00 to 7.00"
